Data provenance: patent US20240409534A1

Test: Pharmacokinetic evaluation in SD rats, intravenous and intragastric (Experimental Embodiment 3)
Type: in vivo
Settings: rat, plasma, po; male SD rats, single intragastric administration, 10 mg/kg; read-out: peak time (Tmax)
Measured quantity: Tmax (min)
Please reply with the bare figure in min and do not write the unit itself.

**Q:** Any idea what Tmax was measured for `CS(=O)(=O)O.Cn1cc(-c2ccn3c(-c4cc(NS(C)(=O)=O)nc(-c5ccc(F)cc5F)c4)cnc3c2)cn1` ?
**A:** 30

---

Experiment: Pharmacokinetic evaluation in SD rats, intravenous and intragastric (Experimental Embodiment 3)
Type: in vivo
Settings: rat, plasma, po; female SD rats, single intragastric administration, 30 mg/kg; read-out: peak concentration (Cmax)
Measured quantity: Cmax (µM)
# value in µM; strip the unit string

**Q:** Given the entry `CS(=O)(=O)O.Cn1cc(-c2ccn3c(-c4cc(NS(C)(=O)=O)nc(-c5ccc(F)cc5F)c4)cnc3c2)cn1` , report its measured Cmax.
**A:** 24.5

---

// reported Cmax for each item listed
Assay: Pharmacokinetic study in rats at 100 mpk (Experimental Embodiment 4)
Format: in vivo
Details: Sprague-Dawley, rat, plasma, po, 100 mg/kg, male SD rats

**Q:** May I ask what Cmax has been recorded for Cn1cc(-c2ccn3c(-c4cc(NS(C)(=O)=O)nc(-c5ccc(F)cc5F)c4)cnc3c2)cn1 [Compound represented by formula (I)] ?
**A:** 3.75 µM

**Q:** And for `CS(=O)(=O)O.Cn1cc(-c2ccn3c(-c4cc(NS(C)(=O)=O)nc(-c5ccc(F)cc5F)c4)cnc3c2)cn1` ?
**A:** 22.1 µM

**Q:** Next: `Cl.Cn1cc(-c2ccn3c(-c4cc(NS(C)(=O)=O)nc(-c5ccc(F)cc5F)c4)cnc3c2)cn1`
**A:** 8.78 µM

---

Experiment: Pharmacokinetic evaluation in SD rats, intravenous and intragastric (Experimental Embodiment 3)
Assay type: in vivo
Conditions: rat, plasma, po; female SD rats, single intragastric administration, 30 mg/kg
Measured quantity: AUC(0-t) (µM·h)
Response body: numeric value in µM·h, unit text excluded.

**Q:** Record request: AUC(0-t) value, item `CS(=O)(=O)O.Cn1cc(-c2ccn3c(-c4cc(NS(C)(=O)=O)nc(-c5ccc(F)cc5F)c4)cnc3c2)cn1`
**A:** 65.6

---

Assay: Pharmacokinetic evaluation in SD rats, intravenous and intragastric (Experimental Embodiment 3)
Assay type: in vivo
Conditions: rat, plasma; female SD rats, single intravenous injection of 1 mg/kg; read-out: elimination half-life (T1/2) (converted)
Measured quantity: half-life (min)
I only need the number, in min, no unit after it.

**Q:** So what does the record say about half-life for `CS(=O)(=O)O.Cn1cc(-c2ccn3c(-c4cc(NS(C)(=O)=O)nc(-c5ccc(F)cc5F)c4)cnc3c2)cn1` ?
**A:** 45.9

---

Assay: Pharmacokinetic evaluation in SD rats, intravenous and intragastric (Experimental Embodiment 3)
Type: in vivo
Details: rat, plasma, po; male SD rats, single intragastric administration, 100 mg/kg; read-out: peak concentration (Cmax)
Measured quantity: Cmax (µM)
Please give a number only; it is taken to be in µM.

**Q:** Need Cmax of `CS(=O)(=O)O.Cn1cc(-c2ccn3c(-c4cc(NS(C)(=O)=O)nc(-c5ccc(F)cc5F)c4)cnc3c2)cn1` , thanks.
**A:** 19.9

---

Experiment: Pharmacokinetic evaluation in SD rats, intravenous and intragastric (Experimental Embodiment 3)
Type: in vivo
Details: rat, plasma, po; male SD rats, single intragastric administration, 30 mg/kg; read-out: peak concentration (Cmax)
Measured quantity: Cmax (µM)
Write down the numeric answer in µM and omit the unit.

**Q:** Requested field: Cmax. Item: `CS(=O)(=O)O.Cn1cc(-c2ccn3c(-c4cc(NS(C)(=O)=O)nc(-c5ccc(F)cc5F)c4)cnc3c2)cn1`
**A:** 16.7

---

Tested on: NCI-H1581 cells with high expression of FGFR1
Test: Cell proliferation inhibition, CellTiter-Glo, NCI-H1581
Format: cell-based
Settings: Homo sapiens, 72 h, NCI-H1581, cultured for 3 days
Measured quantity: IC50 (µM)
Please reply with the bare figure in µM and do not write the unit itself.

**Q:** Checklist item: IC50 tested on NCI-H1581 cells with high expression of FGFR1, entry `CS(=O)(=O)O.Cn1cc(-c2ccn3c(-c4cc(NS(C)(=O)=O)nc(-c5ccc(F)cc5F)c4)cnc3c2)cn1` , value?
**A:** 0.117

---

Experiment: Pharmacokinetic evaluation in SD rats, intravenous and intragastric (Experimental Embodiment 3)
Type: in vivo
Conditions: rat, plasma, po; male SD rats, single intragastric administration, 10 mg/kg; read-out: peak concentration (Cmax)
Measured quantity: Cmax (µM)
Express the result in µM but write the number alone.

**Q:** Look up Cmax: `CS(=O)(=O)O.Cn1cc(-c2ccn3c(-c4cc(NS(C)(=O)=O)nc(-c5ccc(F)cc5F)c4)cnc3c2)cn1`
**A:** 3.78

---

Assay: Pharmacokinetic evaluation in SD rats, intravenous and intragastric (Experimental Embodiment 3)
Format: in vivo
Conditions: rat, plasma, po; female SD rats, single intragastric administration, 100 mg/kg
Measured quantity: AUC(0-t) (µM·h)
Hi! Could you send only the number? It should be in µM·h, unit omitted.

**Q:** Field request: AUC(0-t) | item: `CS(=O)(=O)O.Cn1cc(-c2ccn3c(-c4cc(NS(C)(=O)=O)nc(-c5ccc(F)cc5F)c4)cnc3c2)cn1`
**A:** 125

---

Assay: Pharmacokinetic evaluation in SD rats, intravenous and intragastric (Experimental Embodiment 3)
Format: in vivo
Conditions: rat, plasma, po; female SD rats, single intragastric administration, 10 mg/kg; read-out: peak time (Tmax)
Measured quantity: Tmax
Hi, when you answer, please include the unit after the number. Thanks!

**Q:** Any idea what its Tmax is? The compound is `CS(=O)(=O)O.Cn1cc(-c2ccn3c(-c4cc(NS(C)(=O)=O)nc(-c5ccc(F)cc5F)c4)cnc3c2)cn1`
**A:** 40 min

---

Experiment: Pharmacokinetic evaluation in SD rats, intravenous and intragastric (Experimental Embodiment 3)
Format: in vivo
Details: rat, plasma; female SD rats, single intravenous injection of 1 mg/kg
Measured quantity: AUC(0-t) (µM·h)
Please respond with the number in µM·h and leave the unit unwritten.

**Q:** State the recorded AUC(0-t) for this entry: `CS(=O)(=O)O.Cn1cc(-c2ccn3c(-c4cc(NS(C)(=O)=O)nc(-c5ccc(F)cc5F)c4)cnc3c2)cn1`
**A:** 4.93

---

Test: Pharmacokinetic evaluation in SD rats, intravenous and intragastric (Experimental Embodiment 3)
Type: in vivo
Details: rat, plasma; male SD rats, single intravenous injection of 1 mg/kg
Measured quantity: AUC(0-t) (µM·h)
Express the result in µM·h but write the number alone.

**Q:** AUC(0-t) for `CS(=O)(=O)O.Cn1cc(-c2ccn3c(-c4cc(NS(C)(=O)=O)nc(-c5ccc(F)cc5F)c4)cnc3c2)cn1` ?
**A:** 3.98

---

Test: Pharmacokinetic evaluation in SD rats, intravenous and intragastric (Experimental Embodiment 3)
Assay type: in vivo
Conditions: rat, plasma, po; female SD rats, single intragastric administration, 10 mg/kg; read-out: peak concentration (Cmax)
Measured quantity: Cmax

**Q:** Find the recorded Cmax belonging to `CS(=O)(=O)O.Cn1cc(-c2ccn3c(-c4cc(NS(C)(=O)=O)nc(-c5ccc(F)cc5F)c4)cnc3c2)cn1` and report it.
**A:** 9.17 µM

---

Test: Pharmacokinetic evaluation in SD rats, intravenous and intragastric (Experimental Embodiment 3)
Format: in vivo
Details: rat, plasma, po; female SD rats, single intragastric administration, 10 mg/kg
Measured quantity: AUC(0-t)

**Q:** Given `CS(=O)(=O)O.Cn1cc(-c2ccn3c(-c4cc(NS(C)(=O)=O)nc(-c5ccc(F)cc5F)c4)cnc3c2)cn1` , state its recorded AUC(0-t).
**A:** 24.8 µM·h

---

Assay: Pharmacokinetic evaluation in SD rats, intravenous and intragastric (Experimental Embodiment 3)
Assay type: in vivo
Settings: rat, plasma, po; male SD rats, single intragastric administration, 10 mg/kg
Measured quantity: AUC(0-t) (µM·h)
# value in µM·h; strip the unit string

**Q:** Look up AUC(0-t): `CS(=O)(=O)O.Cn1cc(-c2ccn3c(-c4cc(NS(C)(=O)=O)nc(-c5ccc(F)cc5F)c4)cnc3c2)cn1`
**A:** 7.15

---

Experiment: Pharmacokinetic evaluation in SD rats, intravenous and intragastric (Experimental Embodiment 3)
Type: in vivo
Conditions: rat, plasma; female SD rats, single intravenous injection of 1 mg/kg; read-out: plasma clearance (Cl)
Measured quantity: clearance (mL/min/kg)
Give your result in mL/min/kg as a bare value.

**Q:** Any idea what clearance was measured for `CS(=O)(=O)O.Cn1cc(-c2ccn3c(-c4cc(NS(C)(=O)=O)nc(-c5ccc(F)cc5F)c4)cnc3c2)cn1` ?
**A:** 7.03

---

Test system: bladder cancer cells RT112/84 with high expression of FGFR3
Assay: Cell proliferation inhibition, CellTiter-Glo, RT-112/84
Format: cell-based
Conditions: Homo sapiens, RT112/84, 72 h, RT-112/84, cultured for 3 days
Measured quantity: IC50 (µM)
Give the quantity in µM, number only.

**Q:** Reported IC50 for bladder cancer cells RT112/84 with high expression of FGFR3, given `CS(=O)(=O)O.Cn1cc(-c2ccn3c(-c4cc(NS(C)(=O)=O)nc(-c5ccc(F)cc5F)c4)cnc3c2)cn1` ?
**A:** 0.167
